EXPERIMENTAL TARGET: mouse NMUR2 (mouse, UniProt Q8BZ39 1-395)
Sequence (Q8BZ39 whole entry): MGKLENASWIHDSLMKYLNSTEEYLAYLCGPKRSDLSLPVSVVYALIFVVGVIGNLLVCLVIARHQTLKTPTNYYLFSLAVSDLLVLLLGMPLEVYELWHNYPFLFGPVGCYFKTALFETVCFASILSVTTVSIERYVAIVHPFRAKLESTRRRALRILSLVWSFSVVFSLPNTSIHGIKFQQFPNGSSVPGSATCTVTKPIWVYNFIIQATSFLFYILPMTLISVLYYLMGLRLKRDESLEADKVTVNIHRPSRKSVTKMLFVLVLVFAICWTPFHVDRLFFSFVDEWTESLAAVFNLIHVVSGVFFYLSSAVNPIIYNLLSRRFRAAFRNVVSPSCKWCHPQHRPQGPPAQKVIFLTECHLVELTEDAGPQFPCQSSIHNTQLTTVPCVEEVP
ASSAY: cell-based or functional assay
(PEG)2 40 kDa = branched PEG of 40 kDa linked via the Cys side-chain thiol (code C2 = Cys(PEG)2 40 kDa); Cholesteroyl = cholesterol linked to a cysteine residue via the side-chain thiol
PARAMETER MEASURED: % Activity (FLIPR)
Hi, when you answer, please include the unit after the number. Thanks!

BINDER: Ac-C((PEG)2 40 kDa)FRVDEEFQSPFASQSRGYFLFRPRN-NH2 [NMU9]
OBS VALUE: 100%

Now for a further binder.
Record summary for Ac-C(Cholesteroyl)GYFLFRPRN-NH2 [NMU11] : reported % Activity (FLIPR) = 70.5%
